# tested-target: serine racemase (mouse SR) (Mus musculus, UniProt Q9QZX7)
# Construct: N-terminal His-tag, recombinant from E. coli
# Sequence (Q9QZX7 1-339): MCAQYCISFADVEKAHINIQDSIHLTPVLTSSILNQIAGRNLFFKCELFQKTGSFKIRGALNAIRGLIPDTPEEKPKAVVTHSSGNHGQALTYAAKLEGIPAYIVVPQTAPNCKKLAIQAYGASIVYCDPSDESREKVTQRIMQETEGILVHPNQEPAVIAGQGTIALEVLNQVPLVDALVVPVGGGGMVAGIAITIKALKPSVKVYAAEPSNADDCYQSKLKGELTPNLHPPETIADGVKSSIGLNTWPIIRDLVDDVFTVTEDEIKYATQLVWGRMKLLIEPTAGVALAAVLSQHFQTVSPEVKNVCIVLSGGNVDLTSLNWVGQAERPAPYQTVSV
# assay-overview: LDH-coupled L-Ser dehydration assay, steady-state kinetics
property: pKi
Note: pKi values are expressed as the negative base-10 logarithm of concentration in M.

# get_value(readout='pKi', item= NC(=O)[C@H](O)[C@H](N)C(=O)O (stereo in doubt) [L-β-EHAsn, L-erythro-β-hydroxyasparagine] )
4.40
